B1: PLAGL1 (parent)
chain: EKPPSGTKEKKHQCDHCERCFYTR

Variants of: B1
METHOD_DESCRIPTION: protein stability index of a GFP-peptide fusion (GPS, HEK-293T) (PSI 1-6); higher = more stable;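 also: lentivirally expressed fusions sorted by FACS into six bins by GFP to DsRed ratio, PSI derived from sequencing read proportions per bin multiplied by bin number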
TEST_PARAMETERS: c terminus: a fixed tail appended

| SEQUENCE_CODE | protein stability index |
| --- | --- |
| EKPPSGTDEKKHQCDHCERCFYTR [K8D] | 4.33 |
| EKPPSGTKEKKHQCNHCERCFYTR [D15N] | 3.23 |
| EKPFSGTKEKKHQCDHCERCFYTR [P4F] | 3.44 |
| EKPPSGTKEKKHQCDHCERWFYTR [C20W] | 2.35 |
| EKPPSGTKEKKHQPDHCERCFYTR [C14P] | 4.03 |
| EKPPSGTKEKKHQCDKCERCFYTR [H16K] | 4.02 |
| EKPPSGTIEKKHQCDHCERCFYTR [K8I] | 3.1 |
| EKPPSGTKEKKHQCDHCDRCFYTR [E18D] | 3.12 |
| EWPPSGTKEKKHQCDHCERCFYTR [K2W] | 3.67 |
| EKPPSGTKEKKPQCDHCERCFYTR [H12P] | 2.2 |
| EKPPSGTKEKKHQCDHAERCFYTR [C17A] | 3.71 |
| EKPPAGTKEKKHQCDHCERCFYTR [S5A] | 3.17 |
| EKHPSGTKEKKHQCDHCERCFYTR [P3H] | 3.33 |
| EKPPSGTQEKKHQCDHCERCFYTR [K8Q] | 4.78 |
| EKPPSGTKEYKHQCDHCERCFYTR [K10Y] | 3.81 |
| EKPPSGTKMKKHQCDHCERCFYTR [E9M] | 2.85 |
| EKPPSGTKEKKHQCPHCERCFYTR [D15P] | 2.25 |
| EKNPSGTKEKKHQCDHCERCFYTR [P3N] | 3.94 |
| EKPESGTKEKKHQCDHCERCFYTR [P4E] | 3.88 |
| EKPPSGTKEKKHQCYHCERCFYTR [D15Y] | 2.97 |
| EKPPSGTEEKKHQCDHCERCFYTR [K8E] | 4.4 |
| EKPPSGTKEKKHQCEHCERCFYTR [D15E] | 3.18 |
| EKPPSGTKEKKHQCHHCERCFYTR [D15H] | 2.9 |
| EKPPMGTKEKKHQCDHCERCFYTR [S5M] | 3.48 |
| EKPPSGTKEKKHLCDHCERCFYTR [Q13L] | 3.26 |
| EKPPSGTKEKKHQCDHCERLFYTR [C20L] | 2.95 |
| EKPPSGTKEKKHQCDHCTRCFYTR [E18T] | 3.62 |
| EKPPSGTKEKKHQCDHCERCFYTG [R24G] | 4.24 |
| EKPPSGTKEKKHQCDHCERCFYPR [T23P] | 3.64 |
| EKTPSGTKEKKHQCDHCERCFYTR [P3T] | 3.68 |
| EKPPSGTKEKKHECDHCERCFYTR [Q13E] | 4.31 |
| EKPPSGTKEKKHQCDHRERCFYTR [C17R] | 3.15 |
| EKPLSGTKEKKHQCDHCERCFYTR [P4L] | 3.28 |
| EKPPSWTKEKKHQCDHCERCFYTR [G6W] | 3.13 |
| EKPPSGTKEKKHQCDHCERCFTTR [Y22T] | 3.89 |
| VKPPSGTKEKKHQCDHCERCFYTR [E1V] | 3.57 |
| EKPPSGTKEKKHQCDHCERCFATR [Y22A] | 4.25 |
| EKPPSGTKEKKHQCDHCERCFYTQ [R24Q] | 5.28 |
| EKPPSNTKEKKHQCDHCERCFYTR [G6N] | 3.36 |
| EKPGSGTKEKKHQCDHCERCFYTR [P4G] | 3.99 |
| EKPPSGTKEKKHQCDHCERCFYTA [R24A] | 4.68 |
| EKPPSGTKEKKHDCDHCERCFYTR [Q13D] | 4.33 |
| EKPPSGTKEKKHQWDHCERCFYTR [C14W] | 3.4 |
| EKPPSGTKEKTHQCDHCERCFYTR [K11T] | 3.84 |
| EKPPSGTKYKKHQCDHCERCFYTR [E9Y] | 2.6 |
| EKPPSGTKEKKHQCDHCEGCFYTR [R19G] | 3.24 |
| LKPPSGTKEKKHQCDHCERCFYTR [E1L] | 3.62 |
| EKPTSGTKEKKHQCDHCERCFYTR [P4T] | 3.44 |
| EKPPSGTKEKKHQCDHCRRCFYTR [E18R] | 2.79 |
| EKPPSGTKEKKHQCDHCERCFYTN [R24N] | 4.55 |
| EKFPSGTKEKKHQCDHCERCFYTR [P3F] | 3.54 |
| EKPPSGTKEVKHQCDHCERCFYTR [K10V] | 3.9 |
| EKPPSGTKEKKHQCDHCARCFYTR [E18A] | 3.18 |
| EKPPSGTKEKKHPCDHCERCFYTR [Q13P] | 2.52 |
| EKPPSGTKEKKHQCDHCERCFKTR [Y22K] | 4.45 |
| EKPPSGTKEKKHQCDHCERCFQTR [Y22Q] | 4.21 |
| EKPPSETKEKKHQCDHCERCFYTR [G6E] | 4.09 |
| EKPPSGTKEKIHQCDHCERCFYTR [K11I] | 3.71 |
| EKPPSGTKEKKHQCDLCERCFYTR [H16L] | 3.51 |
| EKPPSGTKEKKHQCDHPERCFYTR [C17P] | 4.33 |
| EKPPSGTKEKKHQTDHCERCFYTR [C14T] | 3.8 |
| EKPPSGTKEKKHQCDHCERCYYTR [F21Y] | 4.37 |
| EKPPSGTKEKKWQCDHCERCFYTR [H12W] | 1.89 |
| HKPPSGTKEKKHQCDHCERCFYTR [E1H] | 3.54 |
| EKPPSGTKEMKHQCDHCERCFYTR [K10M] | 3.76 |
| EKPPSGTKEKSHQCDHCERCFYTR [K11S] | 3.79 |
| EKPPSGTKEKKHQCDHCERSFYTR [C20S] | 1.74 |
| EKPPSGTKNKKHQCDHCERCFYTR [E9N] | 3.25 |
| EKPPSGTAEKKHQCDHCERCFYTR [K8A] | 3.37 |
| EKPPSGTKEKKHQCDHCERCFYTL [R24L] | 4.29 |
| EKPPSGTKEKKHQCDHCERCFYIR [T23I] | 4.03 |
| EKPNSGTKEKKHQCDHCERCFYTR [P4N] | 3.58 |
| EKPPSGTKEKKHQCDHKERCFYTR [C17K] | 4.07 |
| EKPPSGTKEKKHQCDHCEQCFYTR [R19Q] | 4.34 |
| EKKPSGTKEKKHQCDHCERCFYTR [P3K] | 3.6 |
| EKPPSGTKEQKHQCDHCERCFYTR [K10Q] | 3.53 |
| EKPPSGTKEKKHQCDHQERCFYTR [C17Q] | 3.9 |
| EKPPSGFKEKKHQCDHCERCFYTR [T7F] | 3.91 |
| EKPPSGTKEKKHQCDTCERCFYTR [H16T] | 3.66 |
| ERPPSGTKEKKHQCDHCERCFYTR [K2R] | 3.27 |
| EKPPSGTKEKKYQCDHCERCFYTR [H12Y] | 2.15 |
| EKPPSGTKETKHQCDHCERCFYTR [K10T] | 3.78 |
| EKPPSGTKEKEHQCDHCERCFYTR [K11E] | 4.6 |
| EKPPSGTKEKKHQCDHCERCAYTR [F21A] | 4.06 |
| EKPPSGTKEKKHQCDHCERCFYDR [T23D] | 4.63 |
| EKPASGTKEKKHQCDHCERCFYTR [P4A] | 3.79 |
| EKPPSGTKEKKSQCDHCERCFYTR [H12S] | 2.88 |
| EKPPSGGKEKKHQCDHCERCFYTR [T7G] | 3.69 |
| EKPPSGTKEKKHQCDHCERCTYTR [F21T] | 4.26 |
| EMPPSGTKEKKHQCDHCERCFYTR [K2M] | 2.93 |
| EKPPSGTKEKKHQCDHCERYFYTR [C20Y] | 2.66 |
